study.system: C-X-C chemokine receptor type 6 (Homo sapiens) (UniProt O00574)
Sequence (O00574 whole entry, looked up): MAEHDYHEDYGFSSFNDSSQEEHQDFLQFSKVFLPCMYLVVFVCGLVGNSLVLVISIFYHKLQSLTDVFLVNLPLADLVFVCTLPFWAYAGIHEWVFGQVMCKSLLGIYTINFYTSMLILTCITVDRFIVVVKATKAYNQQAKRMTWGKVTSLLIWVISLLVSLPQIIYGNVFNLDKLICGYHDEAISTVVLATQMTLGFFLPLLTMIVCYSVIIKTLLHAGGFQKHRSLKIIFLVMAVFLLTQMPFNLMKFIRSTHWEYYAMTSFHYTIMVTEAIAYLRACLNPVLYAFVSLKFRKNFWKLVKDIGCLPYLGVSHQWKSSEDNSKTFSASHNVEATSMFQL
assay.info: potency against CXCR6 with APJ panel – cell-based, beta-arrestin, DiscoveRx, uHTS hits, dose response (AID 624129)
measurement.context: CXCR6 beta-arrestin (DiscoveRx) antagonist cell assay, CXCR6, run 1, dose range 2
measure.name: log10 of IC50 (log10 of the value in µM)
Plainly stated, the numbers are log10 of IC50 given in µM.

The cases that follow already have their log10 of IC50 on record.
C/C(=N\NC(=O)COc1ccccc1-c1ccccc1)c1ccccn1 : 0.30
C/C(=N\NC(=S)NCCc1ccccc1)c1ccc(Cl)cc1Cl : 1.09
CCc1cc2c(=O)[nH]c(-c3ccccn3)nc2s1 : 0.15
N#Cc1c(C#N)c(SSc2c(C#N)c(C#N)c(N)n2-c2ccccc2)n(-c2ccccc2)c1N : 1.03
C/C(=N\NC(=O)C(c1ccccc1)c1ccccc1)c1ccccn1 : 0.35
O=C1C=CC(=O)N1c1ccc(N2CCCCC2)cc1 : 1.24
CCCOc1ccc(CN(CCC#N)C(=S)NC(=O)c2ccccc2)cc1 : 1.02
Cc1ccc2c(C)ccc(O)c2n1 : 0.64
CCC1=NN(C(=O)c2ccc([N+](=O)[O-])cc2)C(O)(c2ccccc2)C1 (stereo not given) : 1.40
COC(=O)c1ccc2c(c1)C(C)(C)C(/C=C/c1ccccc1O)=[N+]2C : 0.95

Query block: Value lookup for log10 of IC50; key = `CNc1cc(Cl)c2nonc2c1[N+](=O)[O-]`
Result block: 0.48

Query block: Queued: `COc1cccc2sc(N(CCCN(C)C)C(=O)CCS(=O)(=O)c3ccccc3)nc12`
Result block: 1.13

Query block: Queued: `COC(=O)c1cc(CSc2nc3ccc(C)cc3[nH]2)oc1C`
Result block: 1.46

Query block: Queued: `Cn1nc([N+](=O)[O-])nc1Sc1cccc2cccnc12`
Result block: 1.05

Query block: Queued: `O=C(N/N=C/c1ccc([N+](=O)[O-])o1)c1sc2ccccc2c1Cl`
Result block: 1.28

Query block: Queued: `CCOc1cc(/C=C2\C(=O)N(c3cccc(C(F)(F)F)c3)C(=O)c3ccccc32)ccc1O`
Result block: 1.69

Query block: Queued: `COc1ccc(C[C@@H]2OC3(C=CC(=O)C=C3)O[C@H]2Cc2ccc(OC)cc2)cc1`
Result block: 0.73

Query block: Queued: `COc1cc(/C=C/c2ccc3c(Br)cc(Br)c(O)c3n2)ccc1O`
Result block: 0.94

Query block: Queued: `COc1ccccc1C(=O)NNC(=S)NC(=O)c1cccs1`
Result block: 0.96

Query block: Queued: `N#CC(C#N)=C1C=CC=CN1/C(=C\c1ccco1)C(=O)c1ccccc1`
Result block: 0.60

Query block: Queued: `Nc1cc(Cl)c2nonc2c1[N+](=O)[O-]`
Result block: 0.85

Query block: Queued: `O=C(/C=C/c1cccc([N+](=O)[O-])c1)c1ccc([N+](=O)[O-])o1`
Result block: 0.89

Query block: Queued: CCOC(=O)C1=C(C)NC2=C(C(=O)CC(c3cccs3)C2)C1c1cccs1 (stereo not given)
Result block: 1.42

Query block: Queued: `Cc1cc2nc(N3C(=O)CNC3=S)sc2cc1C`
Result block: 0.92

Query block: Queued: CCC1CCCCN1S(=O)(=O)c1ccc(NC(=O)c2nc(S(C)(=O)=O)ncc2Cl)cc1 (stereo not given)
Result block: 1.02

Query block: Queued: `Cc1ccsc1/C=C/c1ccc2cccc(O)c2n1`
Result block: 0.49

====

study.system: C-X-C chemokine receptor type 6 (Homo sapiens)
assay.info: potency against CXCR6 with APJ panel – cell-based, beta-arrestin, DiscoveRx, uHTS hits, dose response (AID 624129)
measurement.context: CXCR6 beta-arrestin (DiscoveRx) antagonist cell assay, CXCR6, dose range 1, mean IC50 across replicates
measure.name: IC50 (µM)
Give the value, in units of µM, as a plain number.

O=C(Nc1ccccc1Oc1ccccc1)[C@@H]1O[C@H](CO)[C@H](O)[C@H](O)[C@H]1O : 14.2
CCn1nccc1C(=O)Nc1nc2ccccc2n1CCN1CCCCC1 : 20.5
O=C(C(=Cc1ccc(F)cc1)C(=O)c1ccccc1)c1ccccc1 : 13.7
COc1ccc(C(=O)NC(=S)Nc2ccc([N+](=O)[O-])cc2C)cc1OC : 21.7
COC(=O)c1cc(CSc2nc3ccc(C)cc3[nH]2)oc1C : 32.9

Query block: Value lookup for IC50; key = `CCCC(=O)OCCNc1cc(Sc2nc3ccccc3[nH]2)c2nonc2c1[N+](=O)[O-]`
Result block: 6.71

====

Recorded inhibition, one value per entry.
study.system: C-X-C chemokine receptor type 6 (Homo sapiens)
assay.info: potency against CXCR6 with APJ panel – cell-based, beta-arrestin, DiscoveRx, uHTS hits, dose response (AID 624129)
measurement.context: CXCR6 beta-arrestin (DiscoveRx) antagonist cell assay, CXCR6, run 1, dose range 2, at 80 µM (top of the series)
Give the value, in units of %, as a plain number.

Cc1ccc(C(=O)CNc2ccc(F)cc2)cc1 : 113
CCOc1ccc2nc(NC(=O)c3ccccn3)sc2c1 : 92.1
C=CS(=O)(=O)c1c2cc(OC)ccc2nc2ccc(OC)cc12 : 117
CC(=O)OCCCNc1cc(Sc2ccc(C)cc2)c2nonc2c1[N+](=O)[O-] : -24.2
CC(=O)OCCCNc1cc(Sc2ccc(Cl)cc2)c2nonc2c1[N+](=O)[O-] : 145
CCN1/C(=C\C=C2\C(=O)N(c3ccccc3)C(=S)N2C)Sc2ccccc21 : 91.3
C=C(CN(C)C)C(=O)c1ccc(OC2OC(COC(C)=O)C(OC(C)=O)C(OC(C)=O)C2OC(C)=O)cc1 (stereo not drawn) : 135
COc1ccc(C(=O)/C=C/C(=O)N(CC(=O)NC2CCCCC2)CC2CCCO2)c(O)c1 (stereo not drawn) : -34.5
O=S(=O)(Nc1cccc2cccnc12)c1ccccc1 : 116
CCOC(=O)c1c(SCCN2CCCC2)n(-c2ccccc2)c(=S)n(-c2ccccc2)c1=O : -8.52

Switching to the query record.
Query block: Value lookup for inhibition; key = COc1ccc(N2C(=O)CC(Sc3nnnn3-c3ccc(F)cc3)C2=O)cc1 (stereo not drawn)
Result block: -50.3

====

study.system: Beta-galactosidase (Escherichia coli)
assay.info: potency against CXCR6 with APJ panel – cell-based, beta-arrestin, DiscoveRx, uHTS hits, dose response (AID 624129)
measurement.context: CXCR6 beta-arrestin (DiscoveRx) antagonist cell assay, b-galactosidase, dose range 1
Activity calls are given as the source filed them. The rule behind the calls is not given here.
Recorded IC50, one value per entry.

Cc1cccc(C(=O)Nc2ccc(C(=O)/C=C/c3cccnc3)cc2)c1 : > 80 µM (inactive)
CCn1c(=O)c([N+](=O)[O-])c(Cl)c2ccccc21 : > 80 µM (inactive)
Cc1cc(C)c2c(=O)n(CC(=O)Nc3cccc(Cl)c3C)sc2n1 : > 80 µM (inactive)
Cc1cccc(C)c1NC(=O)c1nc(S(=O)(=O)Cc2ccccc2)ncc1Cl : > 80 µM (inactive)
Cc1c(Nc2cc(Cl)c3nonc3c2[N+](=O)[O-])c(=O)n(-c2ccccc2)n1C : > 80 µM (inactive)

Query block: Form entry - test system: Beta-galactosidase (Escherichia coli); read-out: IC50; compound: `C/C(=N\NC(=O)c1cc(-c2cccs2)nc2ccccc12)c1ccccn1`
Result block: > 80 µM (inactive)

Query block: Queued: `C=C1C(=O)O[C@@H]2C[C@@H](C)[C@@H]3C=CC(=O)[C@@]3(C)[C@@H](OC(=O)CC(=O)O[C@H]3[C@@H]4C(=C)C(=O)O[C@@H]4C[C@@H](C)[C@@H]4C=CC(=O)[C@]43C)[C@H]12`
Result block: > 80 µM (inactive)

Query block: Queued: `Fc1ccc(NC(=S)Nc2nccs2)cc1`
Result block: > 80 µM (inactive)

====

study.system: C-C chemokine receptor type 6 (Homo sapiens) (UniProt P51684)
assay.info: potency against CXCR6 with APJ panel – cell-based, beta-arrestin, DiscoveRx, uHTS hits, dose response (AID 624129)
measurement.context: CXCR6 beta-arrestin (DiscoveRx) antagonist cell assay, CCR6, dose range 1
Active and inactive are the calls of the source. No rule for the calls is given here.
Reply using exactly one outcome from active, inactive

Use these answered entries as a reference point.
CN(C)S(=O)(=O)c1cccc(NC(=O)CSc2cccc3cccnc23)c1 : active
O=C(CN1CCN(S(=O)(=O)c2ccc(Br)cc2)CC1)Nc1ccc2c(c1)OCO2 : active
C/C(=N\NC(=O)COc1ccccc1-c1ccccc1)c1ccccn1 : active
C/C(=N\NC(=O)c1ccc(F)cc1)c1ccccn1 : active
COc1cc(C(=O)NC2CC3CCCC(C2)N3CC(=O)Nc2ccccc2)cc(OC)c1OC (centres undefined) : inactive
COc1ccc(C)c(-n2c(=O)n(Cc3ccccc3)c(=O)c3[nH]cnc32)c1 : active
C/C(=N\NC(=O)C(C)Oc1ccc([N+](=O)[O-])cc1)c1ccccn1 (centres undefined) : active
COc1ccc(CCN2C(=O)C=CC2=O)cc1OC : active

Query block: What outcome does the record of this test show for `C/C(=N/NC(=O)c1ccc(C(C)(C)C)cc1)c1ccccn1` ?
Result block: active

Query block: Queued: `COc1ccc(OC)c2sc(N(CCCN(C)C)C(=O)CCS(=O)(=O)c3ccccc3)nc12`
Result block: active

Query block: Queued: `O=C1c2ccccc2C(=O)N1OS(=O)(=O)c1ccc(F)cc1`
Result block: active

Query block: Queued: `Nc1cc(Cl)c2nonc2c1[N+](=O)[O-]`
Result block: active

Query block: Queued: `C=C1CC2(OC1=O)c1ccccc1CCc1ccccc12`
Result block: active

Query block: Queued: COc1cc2c(cc1OC)C1(CCCC1)CNC2c1cccc([N+](=O)[O-])c1 (centres undefined)
Result block: active
